Where do the numbers come from? From ChEMBL document CHEMBL3259772.

test: Cmax in C57BL/6 mouse at 5 mg/kg, po administered as cassette dose; format: ADME, organism-based; parameters: dose 5 mg/kg, route oral; settings: in vivo
measurement-label: Cmax (nM)
Number in nM, nothing else.

### Prompt Return reported Cmax; argument: COc1ccc(C(=O)N2CCN(C(=O)/C=C/c3ccc(Br)cc3)CC2)cc1
### Response 835

----------
experiment: Apparent volume of distribution at steady state in C57BL/6 mouse at 1 mg/kg, iv administered as cassette dose; format: ADME, organism-based; set-up: dose 1 mg/kg, route intravenous; settings: in vivo, read-out: Vdss(app)
measurement-label: Vd (L/kg)
Number in L/kg, nothing else.

smiles-repr	Vd [L/kg]
COc1ccc(C(=O)N2CCN(C(=O)/C=C/c3ccc(Br)cc3)CC2)cc1	1.4

### Prompt Return reported Vd; argument: COc1ccc(/C=C/C(=O)N2CCN(C(=O)c3ccc(OC)cc3)CC2)cc1
### Response 0.8

----------
Consider the following compounds and their measured half-life readings.
assay: Terminal blood half life in C57BL/6 mouse at 1 mg/kg, iv administered as cassette dose; format: ADME, organism-based; design: dose 1 mg/kg, route intravenous; settings: read-out: beta t1/2 (converted)
Number in min, nothing else.

### Prompt Return reported half-life; argument: COc1ccc(/C=C/C(=O)N2CCN(C(=O)c3ccc(OC)cc3)CC2)cc1
### Response 12

### Prompt Please do the same for COc1ccc(C(=O)N2CCN(C(=O)/C=C/c3ccc(Br)cc3)CC2)cc1 as well.
### Response 66

----------
assay: Tmax in C57BL/6 mouse at 5 mg/kg, po administered as cassette dose; assay type: ADME, organism-based; parameters: dose 5 mg/kg, route oral; conditions: in vivo
measurement-label: Tmax (h)
Number in h, nothing else.

### Prompt Return reported Tmax; argument: COc1ccc(C(=O)N2CCN(C(=O)/C=C/c3ccc(Br)cc3)CC2)cc1
### Response 1

----------
assay: AUC (infinity) in C57BL/6 mouse at 1 mg/kg, iv administered as cassette dose; assay type: ADME, organism-based; set-up: time infinity, dose 1 mg/kg, route intravenous; details: plasma
Consider the following compounds and their measured AUC(0-inf) readings.
Number in µM·h, nothing else.

smiles-repr	AUC(0-inf) (µM·h)
COc1ccc(C(=O)N2CCN(C(=O)/C=C/c3ccc(Br)cc3)CC2)cc1	2.44

Please turn your attention to the following entry.
### Prompt Return reported AUC(0-inf); argument: COc1ccc(/C=C/C(=O)N2CCN(C(=O)c3ccc(OC)cc3)CC2)cc1
### Response 0.841
